Hey, just so you know, these numbers are from ChEMBL document CHEMBL1139815.

- system name: Sodium-dependent serotonin transporter (Homo sapiens)
- Sequence (P31645 whole entry): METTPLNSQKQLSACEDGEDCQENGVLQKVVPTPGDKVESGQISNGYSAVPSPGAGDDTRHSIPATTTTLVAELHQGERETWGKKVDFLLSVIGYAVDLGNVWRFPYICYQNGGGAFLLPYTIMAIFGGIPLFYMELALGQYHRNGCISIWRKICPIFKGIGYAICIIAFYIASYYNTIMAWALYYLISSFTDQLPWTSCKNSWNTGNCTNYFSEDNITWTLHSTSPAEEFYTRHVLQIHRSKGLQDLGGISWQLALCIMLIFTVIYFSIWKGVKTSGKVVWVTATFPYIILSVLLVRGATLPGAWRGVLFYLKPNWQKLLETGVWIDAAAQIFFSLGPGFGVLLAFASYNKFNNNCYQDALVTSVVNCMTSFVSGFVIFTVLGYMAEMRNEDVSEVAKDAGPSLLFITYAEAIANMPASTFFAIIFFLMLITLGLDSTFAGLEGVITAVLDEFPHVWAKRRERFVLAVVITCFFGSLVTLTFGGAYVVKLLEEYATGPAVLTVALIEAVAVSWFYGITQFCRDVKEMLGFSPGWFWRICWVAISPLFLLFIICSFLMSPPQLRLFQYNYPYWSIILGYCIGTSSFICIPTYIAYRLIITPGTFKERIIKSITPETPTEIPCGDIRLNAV
- measurement protocol: Displacement of [3H]serotonin from human SERT expressed in HeLa cells
- Assay type: cell-based
measurement type: IC50 (nM)
State just the number; it will be interpreted in nM.

Kindly indicate its recorded IC50. Item: `NCCCCCCCCCCCN1CCC(c2c[nH]c3ccccc23)CC1`
25
